Where do these numbers come from? They come from patent US11034725B2.

The entries below are paired with their reported IC50.
STUDY_TARGET: PCSK9 (Homo sapiens, UniProt Q8NBP7)
Sequence (Q8NBP7 153-692): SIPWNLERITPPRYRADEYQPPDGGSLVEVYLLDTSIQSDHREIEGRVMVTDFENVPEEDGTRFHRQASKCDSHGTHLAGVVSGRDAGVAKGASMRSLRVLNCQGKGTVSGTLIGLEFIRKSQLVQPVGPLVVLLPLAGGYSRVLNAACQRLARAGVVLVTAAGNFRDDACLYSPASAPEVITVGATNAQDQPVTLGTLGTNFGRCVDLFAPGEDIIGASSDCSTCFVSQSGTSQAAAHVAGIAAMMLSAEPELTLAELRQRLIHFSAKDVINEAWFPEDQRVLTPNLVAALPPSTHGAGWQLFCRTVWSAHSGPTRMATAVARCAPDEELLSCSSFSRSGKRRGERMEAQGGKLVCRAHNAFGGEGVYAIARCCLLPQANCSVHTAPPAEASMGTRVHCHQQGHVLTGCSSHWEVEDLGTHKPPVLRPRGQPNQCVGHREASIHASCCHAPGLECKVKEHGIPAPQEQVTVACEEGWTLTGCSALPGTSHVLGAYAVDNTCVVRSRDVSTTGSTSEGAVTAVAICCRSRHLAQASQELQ
Sequence (Q8NBP7 31-152 partner limits assumed): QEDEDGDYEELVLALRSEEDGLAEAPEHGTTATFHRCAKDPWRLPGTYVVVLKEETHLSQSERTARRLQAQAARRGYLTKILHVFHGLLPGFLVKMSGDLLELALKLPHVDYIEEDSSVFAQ
ASSAY_NOTES: PCSK9/EGF(A) TR-FRET binding assay
PARTICULARS: TR-FRET; Table 8D, disulfide-cyclized extension peptides; read-out: PCSK9/EGF(A) IC50
Bridge positions count the residues as written; N and C are the ends. Peptide text beside a SMILES is read from it.

COMPOUND: CC[C@H](C)[C@@H]1NC(=O)[C@H](CCCNC(=N)N)NC(=O)[C@H](CCC(N)=O)NC(=O)[C@H](CC(C)C)NC(=O)[C@H](CC(N)=O)NC(=O)[C@H](Cc2c[nH]c3ccccc23)NC(=O)[C@@H]2CCCN2C(=O)[C@H](CC(C)C)NC(=O)[C@H](CCCNC(=N)N)NC(=O)[C@@H](NC(C)=O)CSSC[C@@H](C(N)=O)NC(=O)CNC(=O)[C@H](CC(C)C)NC(=O)CNC1=O [Compound 80] (Ac-CRLPWNLQRIGLGC-NH2; disulfide 1-14)
IC50: > 50 µM
//
COMPOUND: CC[C@H](C)[C@@H]1NC(=O)[C@H](CCCNC(=N)N)NC(=O)[C@H](CCCCN)NC(=O)[C@H](CC(C)C)NC(=O)[C@H](CC(N)=O)NC(=O)[C@H](Cc2c[nH]c3ccccc23)NC(=O)[C@H](CC(C)C)NC(=O)[C@@H](NC(=O)[C@H](Cc2c[nH]c3ccccc23)NC(C)=O)CSSC[C@@H](C(=O)N[C@@H](CCC(=O)O)C(=O)N[C@@H](Cc2ccc(O)cc2)C(N)=O)NC(=O)[C@H](CCC(N)=O)NC(=O)[C@H](CO)NC(=O)CNC1=O [Compound 65] (Ac-WCLWNLKRIGSQCEY-NH2; disulfide 2-13)
IC50: > 50 µM
//
COMPOUND: CC[C@H](C)[C@@H]1NC(=O)[C@H](CCCNC(=N)N)NC(=O)[C@H](CCC(N)=O)NC(=O)[C@H](C)NC(=O)[C@H](CC(N)=O)NC(=O)[C@H](Cc2c[nH]c3ccccc23)NC(=O)[C@@H]2CCCN2C(=O)[C@H](CC(C)C)NC(=O)[C@H](CCCNC(=N)N)NC(=O)[C@@H](NC(C)=O)CSSC[C@@H](C(N)=O)NC(=O)[C@@H]2CCCN2C(=O)[C@H](CC(C)C)NC(=O)CNC1=O [Compound 74] (Ac-CRLPWNAQRIGLPC-NH2; disulfide 1-14)
IC50: > 50 µM

* * *

System: His-EGF(A)-Fc
ASSAY_NOTES: His-EGF(A)-Fc TR-FRET counterscreen
PARTICULARS: TR-FRET counterscreen; Table 8D; * = some inhibition at highest concentrations, not sufficient to fit an IC50
Numbered stars: 1 amine (or outer) side, 2 acyl side, 3 side chain; on linkers, the order of the positions; unused ones are H or OH. Bridge positions count the residues as written; N and C are the ends. Square brackets hold non-standard residues; d marks the D form. Peptide text beside a SMILES is read from it. NH(CH2)9CO = O=C(CCCCCCCCCN[*:1])[*:2]

COMPOUND: CC(=O)N[C@H]1CSSC[C@@H](C(N)=O)NC(=O)CCCCCCCCCNC(=O)[C@H](CCCNC(=N)N)NC(=O)[C@H](CCC(N)=O)NC(=O)[C@H](CC(C)C)NC(=O)[C@H](CC(N)=O)NC(=O)[C@H](Cc2c[nH]c3ccccc23)NC(=O)[C@@H]2CCCN2C(=O)[C@H](CC(C)C)NC(=O)[C@H](CCCNC(=N)N)NC1=O [Compound 84] (Ac-CRLPWNLQR[NH(CH2)9CO]C-NH2; disulfide 1-11)
IC50: > 50 µM
//
COMPOUND: CC[C@H](C)[C@@H]1NC(=O)[C@H](CCCNC(=N)N)NC(=O)[C@H](CCC(N)=O)NC(=O)[C@H](CC(C)C)NC(=O)[C@H](CC(N)=O)NC(=O)[C@H](Cc2c[nH]c3ccccc23)NC(=O)[C@H](C)NC(=O)[C@H](CC(C)C)NC(=O)[C@H](CCCNC(=N)N)NC(=O)[C@@H](NC(C)=O)CSSC[C@@H](C(N)=O)NC(=O)[C@@H]2CCCN2C(=O)[C@H](CC(C)C)NC(=O)CNC1=O [Compound 77] (Ac-CRLAWNLQRIGLPC-NH2; disulfide 1-14)
IC50: > 50 µM
//
COMPOUND: CC[C@H](C)[C@@H]1NC(=O)[C@@H](CCCNC(=N)N)NC(=O)[C@H](CCC(N)=O)NC(=O)[C@H](CC(C)C)NC(=O)[C@H](CC(N)=O)NC(=O)[C@H](Cc2c[nH]c3ccccc23)NC(=O)[C@@H]2CCCN2C(=O)[C@H](CC(C)C)NC(=O)[C@H](CCCNC(=N)N)NC(=O)[C@@H](NC(C)=O)CSSC[C@@H](C(N)=O)NC(=O)[C@@H]2CCCN2C(=O)[C@H](CC(C)C)NC(=O)CNC1=O [Compound 102] (Ac-CRLPWNLQ[dR]IGLPC-NH2; disulfide 1-14)
IC50: > 50 µM
